Molecular target: hnRNP A1 tandem RRMs (UP1-like) (UniProt P09651 1-196)
Sequence (P09651 1-196): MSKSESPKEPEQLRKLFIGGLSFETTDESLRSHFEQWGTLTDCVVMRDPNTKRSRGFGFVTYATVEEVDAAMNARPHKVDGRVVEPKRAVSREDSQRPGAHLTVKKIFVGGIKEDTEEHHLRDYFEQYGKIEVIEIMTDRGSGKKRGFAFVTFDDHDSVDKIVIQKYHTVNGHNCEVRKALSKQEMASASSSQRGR
Assay: fluorescence anisotropy; 35 C; NMR buffer: sodium phosphate pH 6.5 (50 mM for tandem RRMs, 25 mM for single RRMs), 1 mM BME, 50 uM EDTA, no added salt stated; ITC 25 C, NMR 298 K (10% D2O), FA 35 C
Settings: protein: recombinant; tags: 2xHis6-lipoyl tag removed by TEV; label: 3' fluorescein
Measurement Label: pKd
Scale note: pKd = -log10(concentration in M).

CAGGGAUUUCGCGUA (ssRNA) [CFTR exon 9 ESS 15-mer ssRNA mut4] = 6.93

Shift focus to the following entry.
Problem: Request the reported pKd associated with CAGGGAUUUGGGGAC (ssRNA) [CFTR exon 9 ESS 15-mer ssRNA wt]
Solution: 7.00

Source of measurements: paper PMC12171016
